Experimental Details: Cytotoxicity, alamarBlue viability, NMH cells
Assay type: cell-based, mouse
Settings: mouse, NMH cells (newborn mouse heart fibroblast cells); 72 h; read-out: CC50, NMH, AlamarBlue viability
This listing pairs molecules with measured CC50 at 72 h.

Use the examples below as a reference point.
COc1cc2c(cc1OC)-c1cc3ccc(OC)c(OC)c3c[n+]1CC2 [Palmatine chloride] = > 40 µM
c1cc2c(c3c1CC1c4cc5c(cc4CCN1C3)OCO5)OCO2 (racemic) [dl-Tetrahydro coptisine] = > 40 µM

Quick check: CC50 at 72 h of c1c2c(cc3c1OCO3)-c1cc3ccc4c(c3c[n+]1CC2)OCO4 [Coptisine chloride] ?
> 40 µM
